Just for reference, patent US5032398A is where these values come from.

Target: pertussis toxin (Bordetella pertussis)
Sequence (P04977 35-269 limits assumed): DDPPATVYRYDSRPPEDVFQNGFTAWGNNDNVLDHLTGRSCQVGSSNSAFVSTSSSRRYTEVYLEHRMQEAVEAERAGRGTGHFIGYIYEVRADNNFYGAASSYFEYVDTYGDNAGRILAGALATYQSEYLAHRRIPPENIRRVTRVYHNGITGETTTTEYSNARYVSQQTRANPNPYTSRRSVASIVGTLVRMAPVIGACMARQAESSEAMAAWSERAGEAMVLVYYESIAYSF
Assay: Inactivation of NADase activity by sulfhydryl reagents, 6 minutes or 18 hours at 0-4° (Example Eight)
Assay type: biochemical
Details: first incubation: ATP, DTT, CHAPS; 6 minutes at 0-4°
Method: Pertussis toxin was incubated at 37° C. for fifteen minutes as described in Example Six, and then a second incubation was begun by adding 10 μl buffer A with or without 12.5 mM iodoacetate, mixing the contents of the tube and lowering the temperature to 30° C. After fifteen minutes, the tubes were shifted to an ice bath for ten minutes. A third incubation was then begun by adding 10 μl buffer A containing 200 mM DTT to those tubes containing iodoacetate to scavenge the iodoacetate. […]
The entries below are paired with their reported percent of activity with no addition to second incubation.
Parameter: percent of activity with no addition to second incubation (%)

Molecule	Reported value
CCN1C(=O)C=CC1=O [N-ethylmaleimide]	15
O=C(O)CI [iodoacetate]	17
O=C(O)CCl [chloroacetate]	91
NC(=O)CCl [chloroacetamide]	79

====

Biological target: UniProt P04977
Assay: Inactivation of NADase activity by sulfhydryl reagents, 6 minutes or 18 hours at 0-4° (Example Eight)
Type: biochemical
Conditions: first incubation: ATP, DTT, CHAPS; 6 minutes at 0-4°
Parameter: NADase activity (pmol per μg per hour)

Compound	Parameter	Reported value
NC(=O)CCl [chloroacetamide]	NADase activity	76
O=C(O)CCl [chloroacetate]	NADase activity	86
O=C(O)CI [iodoacetate]	NADase activity	17
CCN1C(=O)C=CC1=O [N-ethylmaleimide]	NADase activity	16

====

Biological target: pertussis toxin (Bordetella pertussis)
Assay: Screen of compounds at 1 mM for stimulation of the NADase activity of the toxin (Example Three)
Format: biochemical
Settings: compound 1 mM; relative to 1 mM ATP; toxin preincubated with 20 mM DTT and 2% CHAPS; 3 h at 37° C; average ± half range of two trials; read-out: Fractional Activation
Method: The ADP-ribosylating activity of the pertussis toxin can be detected as a nicotinamide-adenine dinucleotide-glycohydrolase (NADase) activity, which can be conveniently assayed through the use of [nicotinamide-^14 C] or [nicotinamide-^3 H] NAD. […] Before the end of the reaction, 2 ml QAE-Sephadex columns were treated with 10 ml 0.1M imidazole-HCl pH 7.0 with 1.0M NaCl, followed by 40 ml water. […] The labelled nicotinamide was then eluted with 3 ml of water directly into a scintillation vial and counted. […]
Item-by-item account of Emax at 1000 µM

Molecule	Display unit	Emax at 1000 µM
O=P(O)(O)OC(CO)CO [2-glycerol-P]	%	-1
Nc1ncnc2c1ncn2[C@@H]1O[C@H](COP(=O)(O)O)[C@@H](O)[C@H]1O [AMP]	%	26
O=c1[nH]cnc2c1ncn2[C@@H]1O[C@H](COP(=O)(O)OP(=O)(O)OP(=O)(O)O)[C@@H](O)[C@H]1O [ITP]	%	85
NC(Cc1ccc(OP(=O)(O)O)cc1)C(=O)O (stereo not drawn) [tyrosine-P]	%	2
Nc1ncnc2c1ncn2[C@@H]1O[C@H](CO)[C@@H](O)[C@H]1O [adenosine]	%	2
Cc1ncc(COP(=O)(O)O)c(C=O)c1O [pyridoxal-P]	%	53
O=P(O)(O)OC[C@H]1OC(O)[C@H](O)[C@@H](O)[C@@H]1O (stereo partly drawn) [glucose-6-P, glucose 6-phosphate]	%	-3
NC(COP(=O)(O)O)C(=O)O (stereo not drawn) [serine-P]	%	-4
CC(OP(=O)(O)O)C(N)C(=O)O (stereo not drawn) [threonine-P]	%	1
